- METHOD DESCRIPTION: qHTS to identify inhibitors of the type 1 interferon - major histocompatibility complex class I in skeletal muscle: primary screen against the NCATS Mechanism Interrogation Plate v5.0 (MIPE) Libary (AID 1347411); further: nearly all actives have a fitted effect of over 65% in size
- SETUP CONDITIONS: iHSKM cells + IFN-b, HiBiT-tagged MHC-I luminescence, 24 h; series mostly up to 45.8 µM
- Source text: Assay Submitter (PI): Travis B. Kinder Ph.D. & James Inglese Ph.D. Assay Development and Screening Technology Laboratory (ADST) National Center for Advancing Translational Sciences (NCATS), Rockville, MD National Institute of Health (NIH), Bethesda, Maryland […] 7; Detector; 5 sec; Measure luminescence with ViewLux 1430 Ultra HTS (Perkin Elmer). […]
Results filed as inconclusive are left out. The source made the active and inactive calls. The call rests on the fitted dose curve; in most records, active means well fitted inhibition curve with a large enough effect; inconclusive means small, poorly fitted or top-dose-only effect; inactive means no such curve, though single readings can be large or run the other way.
Please state which outcome applies, choosing from y (active), n (inactive)

Past entries and their recorded results:
>>> classification("CN1CCN(Cc2ccc(Nc3ncc(Cl)c(Nc4ccccc4S(=O)(=O)N(C)C)n3)cc2)CC1")
"y"
>>> classification("COc1ccc(CNC(=O)Nc2ncc([N+](=O)[O-])s2)cc1")
"y"
>>> classification("Nc1ncnc2c1ncn2[C@@H]1O[C@H](CO)C[C@H]1O")
"n"
>>> classification("CNc1ncc2cc(-c3cc(NC(=O)NCCC(C)(C)C)c(F)cc3C)c(C)nc2n1")
"n"
>>> classification("CNC(=O)c1c(C)oc2cc(Oc3ncnc4cc(OC)c(OC)cc34)ccc12")
"n"
>>> classification("C=CC(=O)Nc1cccc(Nc2nc(Nc3ccc(Oc4ccnc(C(=O)NC)c4)cc3)ncc2F)c1")
"y"
>>> classification("O=S(=O)(NCCNC/C=C/c1ccc(Br)cc1)c1cccc2cnccc12")
"n"
>>> classification("Cn1cc(-c2cnc3ccc4ccc(CS(=O)(=O)NCc5ccccn5)cc4c(=O)c3c2)cn1")
"n"
>>> classification("COc1cc(OC)cc(N(CCNC(C)C)c2ccc3ncc(-c4cnn(C)c4)nc3c2)c1")
"y"

Kindly consider the entry below.
Asked: Outcome logged for COCc1c(-c2ccc(NC(=O)Nc3cc(C(F)(F)F)ccc3F)c(F)c2)c2c(N)ncnn2c1CN1CCOCC1 in this assay:
Given back: y
